- Test system: MOLT-4
- Experiment summary: NCI tumour cell line growth inhibition, 48 h
Active and inactive are the calls of the source. Rule as the data show it: active = GI50 up to about 1.1 µM and inactive = higher.
A collection of molecules and their measured GI50

Please report GI50 for the following molecule: CC1CCCP(=O)(c2ccccc2)CCC1 (stereo unspecified) > 100 µM (inactive)

Please report GI50 for the following molecule: `CN(C)CCNc1ccc2c(=O)n(CCN(C)C)c(=O)n3c4ccc([N+](=O)[O-])cc4c(=O)c1c23` < 0.0141 µM (active)

Please report GI50 for the following molecule: `N#C/C(=C\c1ccc(O)c(O)c1)C(N)=O` 12.5 µM (inactive)

Please report GI50 for the following molecule: `OCC1(CNc2cc(Cl)ncn2)CCC1` > 100 µM (inactive)

Please report GI50 for the following molecule: `Cc1nc(Nc2nnc(-c3cc([N+](=O)[O-])cc([N+](=O)[O-])c3C)o2)sc1C(=O)CC(=O)Cc1nc2ccc(Cl)cc2nc1O` > 100 µM (inactive)

***
Please report GI50 for the following molecule: `O=C1c2ccccc2C(=O)c2[nH]c(Cc3ccc(F)cc3)nc21` 24.8 µM (inactive)

Please report GI50 for the following molecule: `CC1=CC2=C(C=O)C(=O)[C@](C)(O)[C@@H](O)C2=CO1` 15.6 µM (inactive)

Please report GI50 for the following molecule: `CN(C)CCNc1ccc(C(=O)NCCCN(C)CCCNC(=O)c2ccc(NCCN(C)C)c3c(=O)c4ccccc4[nH]c23)c2[nH]c3ccccc3c(=O)c12` < 0.01 µM (active)

Please report GI50 for the following molecule: `C/C(=N\NC(N)=S)c1cc(C)c(C)cc1C` 20.2 µM (inactive)

Please report GI50 for the following molecule: NC(=O)C(c1ccccc1)N1CCOCC1 (stereo unspecified) > 100 µM (inactive)

Please report GI50 for the following molecule: `Cn1nnc2c3c(N(CCO)CCO)ccnc3ccc21` 47.4 µM (inactive)

// provenance: ChEMBL document CHEMBL1201862
